tgt: CDK6/cyclin D1 (Homo sapiens (Human), UniProt Q00534)
Sequence (Q00534 whole entry): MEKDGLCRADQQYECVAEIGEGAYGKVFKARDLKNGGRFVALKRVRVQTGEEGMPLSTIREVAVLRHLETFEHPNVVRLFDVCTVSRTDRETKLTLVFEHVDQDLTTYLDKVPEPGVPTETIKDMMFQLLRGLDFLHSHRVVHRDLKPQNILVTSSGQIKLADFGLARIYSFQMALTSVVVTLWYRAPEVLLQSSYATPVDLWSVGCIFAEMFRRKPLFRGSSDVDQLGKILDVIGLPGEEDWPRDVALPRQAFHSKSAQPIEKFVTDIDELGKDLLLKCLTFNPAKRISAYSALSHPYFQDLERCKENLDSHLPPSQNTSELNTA
Sequence (P24385 whole entry partner): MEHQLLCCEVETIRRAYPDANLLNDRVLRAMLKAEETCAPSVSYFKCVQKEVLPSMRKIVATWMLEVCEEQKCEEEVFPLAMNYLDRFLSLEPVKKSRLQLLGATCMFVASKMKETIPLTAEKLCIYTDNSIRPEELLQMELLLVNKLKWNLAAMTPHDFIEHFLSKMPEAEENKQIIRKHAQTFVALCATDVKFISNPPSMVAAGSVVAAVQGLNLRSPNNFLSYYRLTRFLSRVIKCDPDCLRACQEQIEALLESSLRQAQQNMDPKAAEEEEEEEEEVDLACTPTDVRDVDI
run-description: Biochemical kinase inhibitory assay, CDK6/cyclin D1
recorded-conditions: in the presence of 10 μM ATP
pIC50: −log10 of the molar value.
# pIC50 listing for each entry below

> print(dat)
                                   molecule                                       tgt  endpoint.label     obs.value
1  CC(C)n1cnc2ccc3cnc(Nc4cc(F)c(N5CCNCC5)cn4)nc3c21 [Compound I-13]  CDK6/cyclin D1 (Homo sapiens (Human), UniProt Q00534)           pIC50  7.30 to 8.00

Data request: Supply recorded pIC50 for Cc1nc(Nc2ncc3ccc4ncn(C5CC5)c4c3n2)ccc1N1CCOCC1 [Compound I-51] here.
Data returned: 7.30 to 8.00

Data request: Hello, please tell me recorded pIC50 for this one: CC(C)n1cnc2ccc3cnc(Nc4ccc(N5CCN(C)CC5)cn4)nc3c21 [Compound I-2]
Data returned: 8.00 to 8.70

Data request: Determine its reported pIC50: Cc1cc(Nc2ncc3ccc4ncn(C5CC5)c4c3n2)ncc1N1CCOCC1 [Compound I-50]
Data returned: 7.30 to 8.00
